Assay: NCI Yeast Anticancer Drug Screen. Data for the mec2-1 strain (AID 157)
Details: S. cerevisiae mec2-1 strain, at 50.0 µM, active compounds read high
This is part of a sample that, as a whole, favours compounds with a hit. Of some 79,000 tested, about 15% had one in any assay.
Would you mind labelling by growth inhibition? At or over -10% is 1 (yes), under is 0 (no).

Enquiry: Kindly determine if growth inhibition recorded for "O=C(c1ccc(Cl)cc1)c1ccc(OCCSCCCCCCCCCCSCCOc2ccc(C(=O)c3ccc(Cl)cc3)cc2)cc1" is above or exactly -10%.
Return: 0 (no)

Enquiry: Kindly determine if growth inhibition recorded for "O=c1nnc(O)c2ccn(O)cc1-2" is above or exactly -10%.
Return: 0 (no)

Enquiry: Kindly determine if growth inhibition recorded for "Nc1[nH]n(-c2ccccc2)c(=O)c1/C=N/C(=S)N=Nc1c(O)[nH]c2ccccc12" is above or exactly -10%.
Return: 1 (yes)

Enquiry: Kindly determine if growth inhibition recorded for "Cc1ccc(CCC=O)cc1" is above or exactly -10%.
Return: 1 (yes)

Enquiry: Kindly determine if growth inhibition recorded for "Nc1ccc(S(=O)(=O)Nc2cnc3c(Cl)cccc3n2)cc1" is above or exactly -10%.
Return: 1 (yes)

Enquiry: Kindly determine if growth inhibition recorded for "CCCCCCCCCCCCCCO" is above or exactly -10%.
Return: 0 (no)

Enquiry: Kindly determine if growth inhibition recorded for "CCOC(=O)NCC(C)(C)N(C(=O)OCC)c1ccccc1" is above or exactly -10%.
Return: 0 (no)

Enquiry: Kindly determine if growth inhibition recorded for O=C1Cc2ccccc2NC(c2ccccc2)C1S(=O)(=O)c1ccccc1 (centres undefined) is above or exactly -10%.
Return: 1 (yes)

Enquiry: Kindly determine if growth inhibition recorded for CCOCCOCCOC(=O)C(C)O (centres undefined) is above or exactly -10%.
Return: 1 (yes)

Enquiry: Kindly determine if growth inhibition recorded for "CCCCCCCCCCCC(=O)CCCCCCCCCCC" is above or exactly -10%.
Return: 1 (yes)

Enquiry: Kindly determine if growth inhibition recorded for "Cc1cccc(-c2cccc(C)c2C)c1C" is above or exactly -10%.
Return: 1 (yes)

Enquiry: Kindly determine if growth inhibition recorded for "CN(/N=C/c1ccc(Cl)c(Cl)c1)C1=NCCCCN1" is above or exactly -10%.
Return: 0 (no)

Enquiry: Kindly determine if growth inhibition recorded for Cc1ccc(N=C(C(=O)c2ccccc2)C(Nc2ccc(C)cc2)C(=O)c2ccccc2)cc1 (centres undefined) is above or exactly -10%.
Return: 1 (yes)

Enquiry: Kindly determine if growth inhibition recorded for "CCOC(=O)C(=CNc1cccc(Cl)c1)C(=O)OCC" is above or exactly -10%.
Return: 0 (no)

Enquiry: Kindly determine if growth inhibition recorded for "O=c1cc(-c2ccccc2)[nH]c2ncccc12" is above or exactly -10%.
Return: 0 (no)

Enquiry: Kindly determine if growth inhibition recorded for Cc1ccc(C)c(NC(=O)C(=O)C2C(=O)C3=C(CC2(C)C)Nc2ccccc2S3)c1 (centres undefined) is above or exactly -10%.
Return: 0 (no)

Enquiry: Kindly determine if growth inhibition recorded for "Cc1noc(-c2ccccc2)c1N=Nc1ccccc1" is above or exactly -10%.
Return: 1 (yes)

Enquiry: Kindly determine if growth inhibition recorded for "O=C(NCCN1CCOCC1)c1ccc(I)cc1" is above or exactly -10%.
Return: 1 (yes)

Enquiry: Kindly determine if growth inhibition recorded for COc1nc(NC2OCC(OC(C)=O)C(OC(C)=O)C2OC(C)=O)c(-c2csc(N)n2)c(=O)n1C (centres undefined) is above or exactly -10%.
Return: 0 (no)

Enquiry: Kindly determine if growth inhibition recorded for "CC(C)(C)CC(C)(C)N" is above or exactly -10%.
Return: 1 (yes)

Enquiry: Kindly determine if growth inhibition recorded for "[N-]=[N+]=Nc1cc(=O)n(-c2ccccc2)c2ccccc12" is above or exactly -10%.
Return: 0 (no)

Enquiry: Kindly determine if growth inhibition recorded for CC(C)(C)C1CCC(C(=O)O)CC1 (centres undefined) is above or exactly -10%.
Return: 1 (yes)

Enquiry: Kindly determine if growth inhibition recorded for CC(=O)OC1CC(O)C23COC(O)C1(C)C2CC(O)C1(C)C3C(=O)C(O)C2(C)C(c3ccoc3)CC3OC321 (centres undefined) is above or exactly -10%.
Return: 1 (yes)
